Biological target: Fc-fusion protein of human PSMA (hPSMA-Fc) (Homo sapiens)
Construct: purchased Acro Biosystems PSA-H5264
Experiment: Surface plasmon resonance assay (Biacore T200, single cycle kinetic)
Type: binding
Conditions: PSMA SPR assay, hPSMA-Fc, 25° C.; pKD category; read-out: pKD CAT (converted)
Protocol: Surface plasmon resonance (SPR) studies were performed using a Biacore™ T200 SPR system. Briefly, polarized light is directed towards a gold-labeled sensor surface, and minimum intensity reflected light is detected. […] For each test compound, SPR raw data in the form of resonance units (RU) were plotted as sensorgrams using the Biacore™ T200 control software. […] The pKD value (negative decadic logarithm of dissociation constant) was calculated using Microsoft Excel.
Numbered stars: 1 amine (or outer) side, 2 acyl side, 3 side chain; on linkers, the order of the positions; unused ones are H or OH. Bridge positions count the residues as written; N and C are the ends. Square brackets hold non-standard residues; d marks the D form. Peptide text beside a SMILES is read from it. * marks the point of attachment. X7 = O=C(O)CN1CCN(CC(=O)O)CCN(CC(=O)NC2CCN(CC(=O)*)CC2)CCN(CC(=O)O)CC1; DOTA = O=C(O)CN1CCN(CC(=O)O)CCN(CC(=O)*)CCN(CC(=O)O)CC1; Phe(4-Cl) = N[C@@H](Cc1ccc(Cl)cc1)C(=O)O; X1 = O=C(CC1CCN([*:1])CC1)[*:2]; d(αMeS) = C[C@@](N)(CO)C(=O)O; Tle = CC(C)(C)[C@H](N)C(=O)O; Propanoyl(3-OH) = O=C(CCO)*; Aib = CC(C)(N)C(=O)O
Catalogue of compounds with associated Kd

Provide measured Kd value, entry: C[C@@H](O)[C@H](NC(=O)[C@@H](NC(=O)[C@@H]1CSSC[C@H](NC(=O)[C@H](Cc2ccc(Cl)cc2)NC(=O)C(C)(C)NC(=O)CCO)C(=O)N[C@@H](CCCCN)C(=O)N[C@@H](CCCNC(=N)N)C(=O)N[C@@H](CCCCNC(=O)CN2CCC(NC(=O)CN3CCN(CC(=O)O)CCN(CC(=O)O)CCN(CC(=O)O)CC3)CC2)C(=O)N[C@@H](CC(N)=O)C(=O)N1)C(C)(C)C)C(N)=O [PSM-0324] ({Propanoyl(3-OH)}-[Aib][Phe(4-Cl)]CKRK(X7)NC[Tle]T-NH2; disulfide 3-8) < 12.6 nM

Provide measured Kd value, entry: C[C@@H](O)[C@H](NC(=O)[C@@H](NC(=O)[C@@H]1CSSC[C@H](NC(=O)[C@H](Cc2ccc(Cl)cc2)NC(=O)C(C)(C)NC(=O)[C@@H](NC(=O)CC2CCN(C(=O)CN3CCN(CC(=O)O)CCN(CC(=O)O)CCN(CC(=O)O)CC3)CC2)[C@@H](C)O)C(=O)N[C@@H](CCCCN)C(=O)N[C@@H](CCCNC(=N)N)C(=O)N[C@](C)(CO)C(=O)N[C@@H](CC(N)=O)C(=O)N1)C(C)(C)C)C(N)=O [PSM-0314] ({DOTA}-[X1]T[Aib][Phe(4-Cl)]CKR[d(αMeS)]NC[Tle]T-NH2; disulfide 5-10) < 12.6 nM

Further cases:
Provide measured Kd value, entry: CC(=O)N[C@H](C(=O)NC(C)(C)C(=O)N[C@@H](Cc1ccccc1)C(=O)N[C@H]1CSSC[C@@H](C(=O)N[C@H](C(=O)O)C(C)(C)C)NC(=O)[C@H](CC(N)=O)NC(=O)C(C)(C)NC(=O)[C@H](CCCNC(=N)N)NC(=O)[C@H](CCCCN)NC1=O)[C@@H](C)O [PSM-0300] (Ac-T[Aib]FCKR[Aib]NC[Tle]-OH; disulfide 4-9) < 12.6 nM

---

Target: Fc-fusion protein of human PSMA (hPSMA-Fc) (Homo sapiens, UniProt Q04609)
Construct: purchased Acro Biosystems PSA-H5264
Sequence (Q04609 44-750 limits assumed): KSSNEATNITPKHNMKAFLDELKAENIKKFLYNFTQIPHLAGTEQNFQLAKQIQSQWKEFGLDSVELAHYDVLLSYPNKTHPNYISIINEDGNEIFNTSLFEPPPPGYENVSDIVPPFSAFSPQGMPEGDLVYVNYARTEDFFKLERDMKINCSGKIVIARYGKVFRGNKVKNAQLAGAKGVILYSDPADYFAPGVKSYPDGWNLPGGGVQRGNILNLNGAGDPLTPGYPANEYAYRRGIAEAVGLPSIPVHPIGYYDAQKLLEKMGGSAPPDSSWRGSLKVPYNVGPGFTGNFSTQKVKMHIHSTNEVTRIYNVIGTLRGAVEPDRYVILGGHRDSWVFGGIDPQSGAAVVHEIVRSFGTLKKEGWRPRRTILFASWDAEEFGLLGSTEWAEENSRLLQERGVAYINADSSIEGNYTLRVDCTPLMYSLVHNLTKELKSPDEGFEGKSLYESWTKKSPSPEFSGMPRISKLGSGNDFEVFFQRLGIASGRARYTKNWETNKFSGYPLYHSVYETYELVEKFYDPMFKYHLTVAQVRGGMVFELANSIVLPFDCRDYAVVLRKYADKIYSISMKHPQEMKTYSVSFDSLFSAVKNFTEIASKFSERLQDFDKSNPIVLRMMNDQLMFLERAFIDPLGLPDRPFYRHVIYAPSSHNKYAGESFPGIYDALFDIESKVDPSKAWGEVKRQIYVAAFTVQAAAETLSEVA
Assay: Surface plasmon resonance assay (Biacore T200, single cycle kinetic)
Assay type: binding
Conditions: PSMA SPR assay, category; read-out: pKD CAT (converted)
Procedure: Surface plasmon resonance (SPR) studies were performed using a Biacore™ T200 SPR system. Briefly, polarized light is directed towards a gold-labeled sensor surface, and minimum intensity reflected light is detected. […] For each test compound, SPR raw data in the form of resonance units (RU) were plotted as sensorgrams using the Biacore™ T200 control software. […] The pKD value (negative decadic logarithm of dissociation constant) was calculated using Microsoft Excel.
Bridge positions count the residues as written; N and C are the ends. Square brackets hold non-standard residues; d marks the D form. Peptide text beside a SMILES is read from it. Phe(4-Cl) = N[C@@H](Cc1ccc(Cl)cc1)C(=O)O; Tle = CC(C)(C)[C@H](N)C(=O)O; Nle = CCCC[C@H](N)C(=O)O; Aib = CC(C)(N)C(=O)O
Quantity name: Kd

Provide measured Kd value, entry: CCCC[C@H](NC(=O)[C@@H]1CSSC[C@H](NC(=O)[C@H](Cc2ccccc2)NC(=O)[C@H](C)NC(=O)[C@@H](NC(C)=O)[C@@H](C)O)C(=O)N[C@@H](CCCCN)C(=O)N[C@@H](C)C(=O)N[C@@H](C)C(=O)N[C@@H](CC(N)=O)C(=O)N1)C(=O)N[C@H](C(=O)N[C@@H](CC(=O)O)C(N)=O)[C@@H](C)O [PSM-0581] (Ac-TAFCKAANC[Nle]TD-NH2; disulfide 4-9) > 501 nM

Moving on to another compound below.
Provide measured Kd value, entry: CC(=O)NC(C)(C)C(=O)N[C@@H](Cc1ccc(Cl)cc1)C(=O)N[C@H]1CSSC[C@@H](C(=O)N[C@H](C(=O)N[C@H](C(N)=O)[C@@H](C)O)C(C)(C)C)NC(=O)[C@H](CC(N)=O)NC(=O)C(C)(C)NC(=O)[C@H](CCCNC(=N)N)NC(=O)[C@H](CCCCN)NC1=O [PSM-0559] (Ac-[Aib][Phe(4-Cl)]CKR[Aib]NC[Tle]T-NH2; disulfide 3-8) < 12.6 nM

---

target: PSMA-expressing C4-2 cells (Homo sapiens); construct: PSMA-expressing C4-2 cells (ATCC, Cat. No. CRL-3314) were cultured in RPMI-1640; host or cells: C4-2 cells; experiment: FACS binding assay (competition with 50 nM PSM-0183); details: FACS binding, PSMA-expressing C4-2 cells; pIC50 category; read-out: pIC50 [C4-2] CAT (converted)
Sequence (Q04609 whole entry): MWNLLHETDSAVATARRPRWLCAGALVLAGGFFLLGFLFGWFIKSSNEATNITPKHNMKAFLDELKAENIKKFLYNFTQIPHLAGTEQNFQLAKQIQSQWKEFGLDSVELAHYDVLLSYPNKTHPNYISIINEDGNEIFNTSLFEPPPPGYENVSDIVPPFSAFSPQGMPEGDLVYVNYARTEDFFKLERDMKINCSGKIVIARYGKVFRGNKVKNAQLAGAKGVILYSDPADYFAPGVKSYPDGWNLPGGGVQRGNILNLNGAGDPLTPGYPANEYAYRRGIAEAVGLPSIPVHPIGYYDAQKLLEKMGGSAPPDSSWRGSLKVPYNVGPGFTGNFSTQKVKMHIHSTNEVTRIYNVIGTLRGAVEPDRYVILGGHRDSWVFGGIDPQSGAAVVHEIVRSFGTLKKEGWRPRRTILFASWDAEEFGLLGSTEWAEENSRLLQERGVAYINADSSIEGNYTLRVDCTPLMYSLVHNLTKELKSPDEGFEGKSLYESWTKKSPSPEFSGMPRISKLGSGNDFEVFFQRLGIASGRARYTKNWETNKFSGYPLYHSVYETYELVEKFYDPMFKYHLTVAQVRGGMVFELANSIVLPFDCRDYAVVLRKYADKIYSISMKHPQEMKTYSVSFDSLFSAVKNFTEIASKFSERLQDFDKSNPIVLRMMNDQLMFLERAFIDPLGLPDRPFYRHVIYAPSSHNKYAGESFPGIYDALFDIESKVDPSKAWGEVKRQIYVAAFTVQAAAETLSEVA
Numbered stars: 1 amine (or outer) side, 2 acyl side, 3 side chain; on linkers, the order of the positions; unused ones are H or OH. Bridge positions count the residues as written; N and C are the ends. Square brackets hold non-standard residues; d marks the D form. Peptide text beside a SMILES is read from it. * marks the point of attachment. DOTA = O=C(O)CN1CCN(CC(=O)O)CCN(CC(=O)*)CCN(CC(=O)O)CC1; Trp(5-Br) = N[C@@H](Cc1c[nH]c2ccc(Br)cc12)C(=O)O; X1 = O=C(CC1CCN([*:1])CC1)[*:2]; Cit = NC(=O)NCCC[C@H](N)C(=O)O; Tle = CC(C)(C)[C@H](N)C(=O)O; 4Amb = NCc1ccc(C(=O)O)cc1; Aib = CC(C)(N)C(=O)O
Catalogue of molecules with associated IC50

Provide measured IC50 value, entry: C[C@@H](O)[C@H](NC(=O)[C@@H](NC(=O)[C@@H]1CSSC[C@H](NC(=O)[C@H](Cc2c[nH]c3ccc(Br)cc23)NC(=O)C(C)(C)NC(=O)[C@@H](NC(=O)CC2CCN(C(=O)CN3CCN(CC(=O)O)CCN(CC(=O)O)CCN(CC(=O)O)CC3)CC2)[C@@H](C)O)C(=O)N[C@@H](CCCCN)C(=O)N[C@@H](CCCNC(N)=O)C(=O)NC(C)(C)C(=O)N[C@@H](CC(N)=O)C(=O)N1)C(C)(C)C)C(N)=O [PSM-0359] ({DOTA}-[X1]T[Aib][Trp(5-Br)]CK[Cit][Aib]NC[Tle]T-NH2; disulfide 5-10) > 3.16 µM

Moving on to another molecule below.
Provide measured IC50 value, entry: C[C@@H](O)[C@H](NC(=O)[C@@H](NC(=O)[C@@H]1CSSC[C@H](NC(=O)[C@H](Cc2ccccc2)NC(=O)C(C)(C)NC(=O)c2ccc(CNC(=O)CN3CCN(CC(=O)O)CCN(CC(=O)O)CCN(CC(=O)O)CC3)cc2)C(=O)N[C@@H](CCCCN)C(=O)N[C@@H](CCCNC(=N)N)C(=O)NC(C)(C)C(=O)N[C@@H](CC(N)=O)C(=O)N1)C(C)(C)C)C(N)=O [PSM-0270] ({DOTA-4Amb}-[Aib]FCKR[Aib]NC[Tle]T-NH2; disulfide 3-8) < 0.2 µM

---

target: PSMA-expressing C4-2 cells (Homo sapiens); construct: PSMA-expressing C4-2 cells (ATCC, Cat. No. CRL-3314) were cultured in RPMI-1640; host or cells: C4-2 cells; assay: FACS binding assay (competition with 50 nM PSM-0183); settings: pIC50 category of FACS binding, C4-2 cells; read-out: pIC50 [C4-2] CAT (converted)
Numbered stars: 1 amine (or outer) side, 2 acyl side, 3 side chain; on linkers, the order of the positions; unused ones are H or OH. Bridge positions count the residues as written; N and C are the ends. Square brackets hold non-standard residues; d marks the D form. Side chains are listed from the residue outwards. Peptide text beside a SMILES is read from it. * marks the point of attachment. X3 = O=C(O)CN1CCN(CC(=O)O)CCN(CC(=O)NCCCOCCOCCOCCCN*)CCN(CC(=O)O)CC1; DOTA = O=C(O)CN1CCN(CC(=O)O)CCN(CC(=O)*)CCN(CC(=O)O)CC1; Suc = O=C(CCC(=O)[*:2])[*:1]; Tle = CC(C)(C)[C@H](N)C(=O)O; 4Amb = NCc1ccc(C(=O)O)cc1; Aib = CC(C)(N)C(=O)O
Quantity name: IC50

Provide measured IC50 value, entry: CC(=O)N[C@H](C(=O)NC(C)(C)C(=O)N[C@@H](Cc1ccccc1)C(=O)N[C@H]1CSSC[C@@H](C(=O)N[C@H](C(=O)N[C@H](C(=O)NCc2ccc(C(=O)N[C@H](CCCCNC(=O)CN3CCN(CC(=O)O)CCN(CC(=O)O)CCN(CC(=O)O)CC3)C(N)=O)cc2)[C@@H](C)O)C(C)(C)C)NC(=O)[C@H](CC(N)=O)NC(=O)C(C)(C)NC(=O)[C@H](CCCNC(=N)N)NC(=O)[C@H](CCCCN)NC1=O)[C@@H](C)O [PSM-0522] (Ac-T[Aib]FCKR[Aib]NC[Tle]T[4Amb][dK](DOTA)-NH2; disulfide 4-9) < 200 nM

Moving on to another compound below.
Provide measured IC50 value, entry: CC(=O)N[C@H](C(=O)NC(C)(C)C(=O)N[C@@H](Cc1ccccc1)C(=O)N[C@H]1CSSC[C@@H](C(=O)N[C@H](C(=O)N[C@H](C(N)=O)[C@@H](C)O)C(C)(C)C)NC(=O)[C@H](CC(N)=O)NC(=O)[C@H](CCCCNC(=O)CCC(=O)NCCCOCCOCCOCCCNC(=O)CN2CCN(CC(=O)O)CCN(CC(=O)O)CCN(CC(=O)O)CC2)NC(=O)[C@H](CCC(N)=O)NC(=O)[C@H](CCCCN)NC1=O)[C@@H](C)O [PSM-0423] (Ac-T[Aib]FCKQK([Suc-X3])NC[Tle]T-NH2; disulfide 4-9) 200 to 1260 nM
